Just for reference, patent US9783511B2 is where these values come from.

# collection of IC50 values tested on human RORgammaT-Ligand Binding Domain (LBD) (Homo sapiens (Human))
# Sequence (P51449 269-508): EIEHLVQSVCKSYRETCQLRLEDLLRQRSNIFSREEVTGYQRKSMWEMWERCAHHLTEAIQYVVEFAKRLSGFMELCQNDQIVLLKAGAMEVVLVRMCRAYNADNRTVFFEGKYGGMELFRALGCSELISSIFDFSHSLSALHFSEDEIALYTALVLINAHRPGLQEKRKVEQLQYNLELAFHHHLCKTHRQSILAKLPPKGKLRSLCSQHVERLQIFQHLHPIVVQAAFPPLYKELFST
reported.metric: IC50 (nM)

>>> endpoint_value("CC(C)(OC(=O)Nc1cc(F)c2c(c1)N(S(=O)(=O)c1cccc(C(F)(F)F)c1)C[C@H](CCC(=O)O)O2)C(F)(F)F [Example 29E]")
10.2

1: CCc1nc(S(=O)(=O)N2C[C@H](CC(C)(C)C(=O)O)Oc3ccc(NC(=O)OC(C)(C)C(F)(F)F)cc32)c(OCC(F)(F)F)s1 [Example 12R]
2: COc1cc(S(=O)(=O)N2C[C@H](CCC(=O)O)Oc3ccc(NC(=O)O[C@H](C)C(C)(C)C)cc32)ccc1F (single isomer, unassigned) [Example 24D]
Problem: Just tell me: smaller IC50 value, 1 or 2 ? // output: label of the selected item
Solution: 2

---

- target.entity: human RORgammaT-Ligand Binding Domain (LBD) (Homo sapiens (Human))
reported.metric: IC50 (nM)

>>> endpoint_value("CC(C)(OC(=O)Nc1ccc2c(c1)N(S(=O)(=O)c1cccc(C#N)c1)C[C@H](CCC(=O)O)O2)C(F)(F)F")
11

P: COc1cc(S(=O)(=O)N2C[C@H]([C@H]3C[C@H]3C(=O)O)Oc3ccc(NC(=O)OC(C)(C)C(F)(F)F)cc32)ccc1F (single isomer, unassigned) [Example 22M]
Q: CC[C@H](C[C@H]1CN(S(=O)(=O)c2cccc(C3CC3)c2)c2cc(NC(=O)OC(C)(C)C(F)(F)F)ccc2O1)C(=O)O (single isomer, unassigned) [Example 10D]
Problem: Higher IC50: P or Q ? // output: label of the selected item
Solution: Q
